Tested on: 422866-222-R5-J1-PDC spheroids with HUVEC/MSC, viability;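 further: spheroids exposed to compounds for seven days before reading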
Experiment: Anticancer human tumor 422866-222-R5-J1-PDC patient-derived pancreatic adenocarcinoma cell line growth inhibition [GQUAD]
Details: second compound 3.16 µM; first compound 1 µM; hits give low values
In plain terms, low viability, T/C, meaning strictly below 70%, gives T, and everything else gives F.

Q. Determine whether this molecule shows viability, T/C lower than 70% (ties excluded): O=C(c1cc(Cc2n[nH]c(=O)c3ccccc23)ccc1F)N1CCN(C(=O)C2CC2)CC1 + Cc1[nH]c2ccc(F)cc2c1-c1nc2c3cccnc3c3ncccc3c2[nH]1
A. F

Q. Determine whether this molecule shows viability, T/C lower than 70% (ties excluded): COc1ccc([C@@H](O)c2cc(-c3ncnc4cc(N5CCOCC5)ccc34)c(F)cc2Cl)nn1 + Cc1[nH]c2ccc(F)cc2c1-c1nc2c3cccnc3c3ncccc3c2[nH]1
A. T

Q. Determine whether this molecule shows viability, T/C lower than 70% (ties excluded): CC(=O)O[C@H]1C(=O)[C@@]2(C)[C@H]([C@H](OC(=O)c3ccccc3)[C@]3(O)C[C@H](OC(=O)[C@H](O)[C@@H](NC(=O)c4ccccc4)c4ccccc4)C(C)=C1C3(C)C)[C@]1(OC(C)=O)CO[C@@H]1C[C@@H]2O + Cc1[nH]c2ccc(F)cc2c1-c1nc2c3cccnc3c3ncccc3c2[nH]1
A. T

Q. Determine whether this molecule shows viability, T/C lower than 70% (ties excluded): CC(C)(O)C1CCC(Nc2ccc3ncc(-c4cccc(C(F)(F)F)c4)n3n2)CC1 (stereo not given) + Cc1cnc(CNC(=O)c2c(=O)c3ccc(N4CCCN(C)CC4)nc3n3c2sc2ccccc23)cn1
A. F

Q. Determine whether this molecule shows viability, T/C lower than 70% (ties excluded): COc1cccc2c1C(=O)c1c(O)c3c(c(O)c1C2=O)CC(O)(C(=O)CO)CC3OC1CC(N)C(O)C(C)O1 (stereo not given) + Cc1cnc(CNC(=O)c2c(=O)c3ccc(N4CCCN(C)CC4)nc3n3c2sc2ccccc23)cn1
A. T

Q. Determine whether this molecule shows viability, T/C lower than 70% (ties excluded): CC1COCCN1c1cc(C2(O)CC3CCC(C2)O3)c2cnn(-c3ccn[nH]3)c2n1 (stereo not given) + Cc1[nH]c2ccc(F)cc2c1-c1nc2c3cccnc3c3ncccc3c2[nH]1
A. F

Q. Determine whether this molecule shows viability, T/C lower than 70% (ties excluded): CC(C)(O)C1CCC(Nc2ccc3ncc(-c4cccc(C(F)(F)F)c4)n3n2)CC1 (stereo not given) + CN(C)c1ccc(Nc2c3ccc(NC(=O)CCN4CCCC4)cc3nc3cc(NC(=O)CCN4CCCC4)ccc23)cc1
A. T

Q. Determine whether this molecule shows viability, T/C lower than 70% (ties excluded): CC(=O)O[C@H]1C(=O)[C@@]2(C)[C@H]([C@H](OC(=O)c3ccccc3)[C@]3(O)C[C@H](OC(=O)[C@H](O)[C@@H](NC(=O)c4ccccc4)c4ccccc4)C(C)=C1C3(C)C)[C@]1(OC(C)=O)CO[C@@H]1C[C@@H]2O + Cc1cnc(CNC(=O)c2c(=O)c3ccc(N4CCCN(C)CC4)nc3n3c2sc2ccccc23)cn1
A. F

Q. Determine whether this molecule shows viability, T/C lower than 70% (ties excluded): O=c1[nH]cc(F)c(=O)[nH]1 + CN(C)c1ccc(Nc2c3ccc(NC(=O)CCN4CCCC4)cc3nc3cc(NC(=O)CCN4CCCC4)ccc23)cc1
A. F
